# Test system: potato tubers
# Test Description: Sprout inhibition by dipping in combinations of monoterpenes and other compounds (Example 5)
# Type: in vivo
# Test Settings: dipping five hours in aqueous solution with Tween 20; 4-8 mM; after 7 days
Measured Parameter: % eyes sprouted after 7 days

Ask | Give the measured % eyes sprouted after 7 days of COc1ccc(C=O)cc1 .
Reply | 96%

Ask | // repeat for CC1CCC(C(C)C)C(O)C1 (centres unmarked) and report
Reply | 29%

Ask | // repeat for CC(=O)OC1CC(C)CCC1C(C)C (centres unmarked) [Menthyl acetate] and report
Reply | 0.0%

Ask | // repeat for Cc1ccc(C(C)C)c(O)c1 and report
Reply | 98%

Ask | // repeat for CC=Cc1ccc(OC)cc1 and report
Reply | 0.0%

* * *

# Tested on: potato tubers
# Test Description: Sprout inhibition by dipping in combinations of monoterpenes and other compounds (Example 5)
# Type: in vivo
# Test Settings: dipping five hours in aqueous solution with Tween 20; 4-8 mM; after 3 days
Measured Parameter: % eyes sprouted After 3 days
Answer with the value and then the unit.

Recorded % eyes sprouted After 3 days, per entry:
{"Molecule": "COc1ccc(C=O)cc1", "Value": "78%"}
{"Molecule": "CC(=O)OC1CC(C)CCC1C(C)C (centres unmarked) [Menthyl acetate]", "Value": "0.0%"}
{"Molecule": "CC=Cc1ccc(OC)cc1", "Value": "0.0%"}
{"Molecule": "Cc1ccc(C(C)C)c(O)c1", "Value": "79%"}

Now for the molecule whose % eyes sprouted After 3 days we want.
Ask | Give the measured % eyes sprouted After 3 days of CC1CCC(C(C)C)C(O)C1 (centres unmarked) .
Reply | 29%
